assayed_system: G-protein coupled receptor 35 (Homo sapiens, UniProt Q9HC97)
Sequence (Q9HC97 whole entry): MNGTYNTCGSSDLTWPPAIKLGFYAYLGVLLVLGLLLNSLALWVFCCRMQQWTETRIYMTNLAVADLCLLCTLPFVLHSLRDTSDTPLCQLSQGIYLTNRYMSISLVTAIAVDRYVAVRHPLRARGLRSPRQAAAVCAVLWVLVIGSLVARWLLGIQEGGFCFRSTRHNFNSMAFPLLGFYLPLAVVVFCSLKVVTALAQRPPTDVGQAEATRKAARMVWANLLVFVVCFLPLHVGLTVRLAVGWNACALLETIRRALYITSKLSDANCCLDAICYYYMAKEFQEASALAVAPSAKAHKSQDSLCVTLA
assay: Agonist activity at human GPR35 receptor expressed in HT-29 cells assessed as reduction in dynamic mass redistribution response in presence of GPR35 antagonist ML-145 by DMR assay
Type: functional, cell-based
observable: IC50 (nM)

Here's what some known entries look like.
O=C(O)c1cc2cc(Br)c(O)cc2oc1=O    130
COc1ccc(-c2cc3cc(C(=O)O)c(=O)oc3c3cc(C(=O)O)c(=O)oc23)cc1    470
COc1ccccc1-c1cc2cc(C(=O)O)c(=O)oc2cc1O    120
COc1cc(C(=O)O)nc2c(C)c3nc(C(=O)O)cc(OC)c3cc12    282
Cc1c2[nH]c(C(=O)O)cc(=O)c2cc2c(=O)cc(C(=O)O)[nH]c12    789

A: COc1cccc(-c2cc3cc(C(=O)O)c(=O)oc3cc2O)c1
B: Cc1c2oc(=O)c(C(=O)O)cc2cc2cc(C(=O)O)c(=O)oc12
C: O=C(O)c1cc2cc(-c3cccs3)c(O)cc2oc1=O
D: O=C(O)c1cc(C(=O)O)c2c(n1)C(=O)C(=O)c1cc(C(=O)O)[nH]c1-2 [PYRROLOQUINOLINE QUINONE]
E: O=C(O)c1cc2c(oc1=O)c(-c1ccc(F)cc1)cc1cc(C(=O)O)c(=O)oc12
List by increasing IC50. Answer by listing the labels in the requested order.
C, B, D, E, A
(C: 160 nM, B: 350 nM, D: 582 nM, E: 1030 nM, A: 2260 nM)

1: Cc1c2nc(C(=O)O)cc(Cl)c2cc2c(Cl)cc(C(=O)O)nc12
2: COc1cccc(-c2cc3cc(C(=O)O)c(=O)oc3c3cc(C(=O)O)c(=O)oc23)c1
Response body: label of entry with the larger IC50; valid values 1 , 2 . Selection: enter the item's label.
1

###

assayed_system: G-protein coupled receptor 35 (Homo sapiens)
assay: Agonist activity at human GPR35 receptor expressed in CHO-K1 cells assessed as dynamic mass redistribution response by DMR assay
Type: functional, cell-based
observable: EC50 (nM)

Here's what some known entries look like.
COc1ccc(-c2cc3cc(C(=O)O)c(=O)oc3c3cc(C(=O)O)c(=O)oc23)cc1    6.93
Cc1c2[nH]c(C(=O)O)cc(=O)c2cc2c(=O)cc(C(=O)O)[nH]c12    1.08
Cc1c2nc(C(=O)O)cc(Cl)c2cc2c(Cl)cc(C(=O)O)nc12    5.08

P: COc1cc(C(=O)O)nc2c(C)c3nc(C(=O)O)cc(OC)c3cc12
Q: O=C(O)c1cc2c(oc1=O)c(Br)cc1cc(-c3nnn[nH]3)c(=O)oc12
Response body: label of entry with the larger EC50; valid values P , Q . Selection: enter the item's label.
Q

###

assayed_system: D(2) dopamine receptor (Homo sapiens) (UniProt P14416)
Sequence (P14416 whole entry): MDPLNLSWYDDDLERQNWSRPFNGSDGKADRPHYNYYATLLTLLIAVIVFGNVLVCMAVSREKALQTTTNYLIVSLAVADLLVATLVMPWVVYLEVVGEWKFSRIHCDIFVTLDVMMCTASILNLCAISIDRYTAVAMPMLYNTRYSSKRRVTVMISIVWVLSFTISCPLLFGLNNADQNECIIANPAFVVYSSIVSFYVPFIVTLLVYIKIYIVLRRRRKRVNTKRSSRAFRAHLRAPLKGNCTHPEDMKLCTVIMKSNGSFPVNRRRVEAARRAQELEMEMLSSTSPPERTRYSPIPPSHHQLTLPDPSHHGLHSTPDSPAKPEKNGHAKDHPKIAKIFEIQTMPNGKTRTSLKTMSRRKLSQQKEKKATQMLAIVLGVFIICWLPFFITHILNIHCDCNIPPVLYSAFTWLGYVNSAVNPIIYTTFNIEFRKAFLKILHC
assay: Agonist activity at dopamine D2 receptor (unknown origin) at 1 uM
Type: functional
Active and inactive are the calls of the source. The rule behind the calls is not given here.
observable: Activity

Here's what some known entries look like.
Cc1c2nc(C(=O)O)cc(Cl)c2cc2c(Cl)cc(C(=O)O)nc12    inactive
O=C(O)c1cc2c(oc1=O)c(Br)cc1cc(-c3nnn[nH]3)c(=O)oc12    inactive
COc1cc(C(=O)O)nc2c(C)c3nc(C(=O)O)cc(OC)c3cc12    inactive
Cc1c2[nH]c(C(=O)O)cc(=O)c2cc2c(=O)cc(C(=O)O)[nH]c12    inactive
COc1ccc(-c2cc3cc(C(=O)O)c(=O)oc3c3cc(C(=O)O)c(=O)oc23)cc1    inactive

API: value(readout=Activity, system=D(2) dopamine receptor (Homo sapiens) (UniProt P14416)) for record CCCOc1ccccc1-c1nc2[nH]nnc2c(=O)[nH]1
inactive

These measurements were taken from ChEMBL document CHEMBL4834401.
